- Tested on: SF-295 CNS
- EXPERIMENT NOTES: NCI tumour cell line growth inhibition, 48 h
ATTRIBUTE MEASURED: TGI

QUERY: Given the molecule CC1CC(c2ccc(Cl)c(Cl)c2)=Nc2ccccc2S1 (stereo unspecified) , what is its reported TGI?
RESULT: > 100 µM

QUERY: Given the molecule CCSc1nc(-c2cccs2)nc2ccc(I)cc12 , what is its reported TGI?
RESULT: > 100 µM

QUERY: Given the molecule CCCCCC1=C2C(c3ccc(OC)cc3)=C(N)C(c3ccc(OC)cc3)=C3NC(=O)C(C=C1)C32 (stereo unspecified) , what is its reported TGI?
RESULT: > 100 µM

QUERY: Given the molecule Cc1ccc2nc3c(C)cc(=O)cc-3sc2c1 , what is its reported TGI?
RESULT: > 100 µM

QUERY: Given the molecule O=C1OC2(OC2c2ccc(Cl)cc2)c2ccccc21 (stereo unspecified) , what is its reported TGI?
RESULT: > 100 µM

QUERY: Given the molecule N#CCC1(c2ccc(Cl)cc2)NC(=O)c2ccccc21 (stereo unspecified) , what is its reported TGI?
RESULT: > 100 µM

QUERY: Given the molecule CC(C)[C@H](C(=O)O[C@@H]1/C=C/C(=O)O[C@@H](C)CCC/C=C/[C@@H]2C[C@H](O)C[C@H]21)N(C)C , what is its reported TGI?
RESULT: 25.1 µM

QUERY: Given the molecule C[N+](C)(C)CCOP(=O)([O-])OCCNC(=O)c1ccc2ccccc2c1 , what is its reported TGI?
RESULT: > 100 µM

QUERY: Given the molecule Cc1c(N=Nc2ccc(Cl)cc2)c(C)n(C2OC(CO)C(O)C(O)C2O)c(=S)c1C#N (stereo unspecified) , what is its reported TGI?
RESULT: 83.5 µM

QUERY: Given the molecule CCO[C@]12CCC[C@H]1[C@@H]1C(=O)c3ccccc3C(=O)C1=C(C)O2 , what is its reported TGI?
RESULT: > 100 µM

QUERY: Given the molecule COC(=O)/C=C1\CCCN1CCc1cc2c(cc1CC#N)OCO2 , what is its reported TGI?
RESULT: > 100 µM

====

- System: UACC-257 melanoma
- EXPERIMENT NOTES: NCI tumour cell line growth inhibition, 48 h
GI50: recorded values

QUERY: Given the compound COc1cc(NC(=O)c2ccccc2Nc2ccnc(C(F)(F)F)c2)cc(OC)c1OC , what is its reported GI50?
RESULT: 88.2 µM

QUERY: Given the compound Fc1ccc(C2C3CCOc4c(ccc5ccccc45)C3=NN2c2ccccc2)cc1 (stereo not given) , what is its reported GI50?
RESULT: 43.9 µM

QUERY: Given the compound CCCc1n(Cc2ccc3ccccc3n2)cc[n+]1Cc1ccc2ccccc2n1 , what is its reported GI50?
RESULT: 0.778 µM

QUERY: Given the compound Cc1cc2c(cc1Cl)N1C(=O)NS(=O)(=O)N=C1NS2(=O)=O , what is its reported GI50?
RESULT: > 100 µM

New cases:
QUERY: Given the compound O=C1N=C(Nc2nc(-c3csc(NC4=NC(=O)/C(=C\c5ccc(Cl)cc5)S4)n3)cs2)S/C1=C/c1ccc(Cl)cc1 , what is its reported GI50?
RESULT: 5.14 µM

====

- System: UACC-62 melanoma
- EXPERIMENT NOTES: NCI tumour cell line growth inhibition, 48 h
ATTRIBUTE MEASURED: TGI

QUERY: Find the measured TGI: item Cn1cc(C2=C(c3c(S(C)=O)n(C)c4ccccc34)C(=O)NC2=O)c2ccccc21 (configuration not stated) , target or system UACC-62 melanoma.
RESULT: > 25 µM

QUERY: Find the measured TGI: item CCCCCCC1CC(=O)C1(Cl)Cl (configuration not stated) , target or system UACC-62 melanoma.
RESULT: 47.8 µM

QUERY: Find the measured TGI: item COC(=O)C(Cc1nc2ccccc2[nH]c1=O)C(=O)C(=O)Nc1ccc(F)cc1 (configuration not stated) , target or system UACC-62 melanoma.
RESULT: 67.8 µM

QUERY: Find the measured TGI: item Cc1ccc(N=NC(C2=NC(=O)CS2)c2nc3ccccc3[nH]2)cc1 (configuration not stated) , target or system UACC-62 melanoma.
RESULT: > 100 µM

QUERY: Find the measured TGI: item CCO[C@]12CCC[C@H]1[C@@H]1C(=O)c3ccccc3C(=O)C1=C(C)O2 , target or system UACC-62 melanoma.
RESULT: > 100 µM

====

- System: SW-620 colon
- EXPERIMENT NOTES: NCI tumour cell line growth inhibition, 48 h
ATTRIBUTE MEASURED: TGI

QUERY: Given the compound O=C1NC(=O)C(c2c[nH]c3ccccc23)=C1c1ccccc1 , what is its reported TGI?
RESULT: > 25 µM

Lab note: next compound to report on.
QUERY: Given the compound COc1c(Br)cc(/C=C(\C#N)c2ccccn2)cc1Br , what is its reported TGI?
RESULT: > 100 µM

====

- Test system: NCI-H460 lung
Tick one outcome: active, inactive

Below, 4 molecules whose answers are already recorded.
QUERY: Call for entry Cc1cc2c(cc1Cl)SC(C(=O)c1ccc(Cl)c(Cl)c1)NS2(=O)=O (stereo not given) :
RESULT: inactive

QUERY: Call for entry CNCCN(C)Cc1cn[nH]c1-c1ccc(OC2CC(OCCC3CCOCC3)C2)cc1 (stereo not given) :
RESULT: inactive

QUERY: Call for entry Cn1cc(C2=C(c3c(S(C)=O)n(C)c4ccccc34)C(=O)NC2=O)c2ccccc21 (stereo not given) :
RESULT: inactive

QUERY: Call for entry CC1(O)COCCCCOc2c(CN)cccc2NC(=O)c2nc(cnc2N)-c2ccc(cc2)S(=O)(=O)C(C)(C)C1 (stereo not given) :
RESULT: active

# next molecule below
QUERY: Call for entry COc1ccc(/C=C2/CN(CCC#N)C/C(=C\c3ccc(OC)cc3)C2=O)cc1 :
RESULT: inactive

====

- Test system: SK-MEL-28 melanoma
- EXPERIMENT NOTES: NCI tumour cell line growth inhibition, 48 h
GI50: recorded values

The cases that follow already have their GI50 on record.
QUERY: Given the compound Fc1ccc(C2C3CCOc4c(ccc5ccccc45)C3=NN2c2ccccc2)cc1 (centres undefined) , what is its reported GI50?
RESULT: > 88.7 µM

QUERY: Given the compound OCc1ccc(N(Cc2ccc(F)cc2)CC2CCC2)cc1Cl , what is its reported GI50?
RESULT: 14.8 µM

QUERY: Given the compound O=C1N=C(Nc2nc(-c3csc(NC4=NC(=O)/C(=C\c5ccc(Cl)cc5)S4)n3)cs2)S/C1=C/c1ccc(Cl)cc1 , what is its reported GI50?
RESULT: 42.8 µM

QUERY: Given the compound O=C(Nc1ccccc1)Nc1ccc(Cl)c(Cl)c1 , what is its reported GI50?
RESULT: 4.55 µM

QUERY: Given the compound COc1ccc2c(c1)C(=O)c1c-2c(N2CCN(C(=O)CCNCCNCCO)CC2)nc2ccccc12 , what is its reported GI50?
RESULT: 9.22 µM

New cases:
QUERY: Given the compound CC(=O)C(C=O)C(C)=O.CC(=O)CC(C)=O.CC(=O)CC(C)=O.[Ru] , what is its reported GI50?
RESULT: 48.8 µM

QUERY: Given the compound O=C(c1ccco1)c1c(C(F)(F)F)n([O-])c2ccc(F)cc2[n+]1=O , what is its reported GI50?
RESULT: 1.46 µM

QUERY: Given the compound COc1ccc(/C=C2/CN(CCC#N)C/C(=C\c3ccc(OC)cc3)C2=O)cc1 , what is its reported GI50?
RESULT: 1.99 µM

QUERY: Given the compound COc1cc(-c2nn(-c3cccc(NC(=O)CCN4CCN(C)CC4)c3)cc2-c2ccncc2)ccc1Cl , what is its reported GI50?
RESULT: 1.48 µM

====

- Test system: UACC-62 melanoma
- EXPERIMENT NOTES: NCI tumour cell line growth inhibition, 48 h
*1 amine or outer side, *2 acyl side, *3 side chain or, on linkers, in order; H or OH if unused. Where a SMILES comes first, the peptide text is derived from it. The star is where a group is joined. γGlu = O=C(O)[CH](CCC(=O)[*:2])N[*:1]; NHOH = ON*
ATTRIBUTE MEASURED: TGI

The cases that follow already have their TGI on record.
QUERY: Given the compound COc1ccc(/C=C2\CCC(Cc3ccccc3)(CN(C)C)C2=O)cc1 (configuration not stated) , what is its reported TGI?
RESULT: > 76.9 µM

QUERY: Given the compound CCOC(=O)CNC(=O)C(CCC(=O)NO)NC(=O)CCC(N)C(=O)O (configuration not stated) (γGlu-Glu(NHOH)-Gly-OEt; configuration not given here) , what is its reported TGI?
RESULT: > 100 µM

QUERY: Given the compound CSc1ccc(/C=C2\N=C(c3ccccc3)N(/N=C3\C(=O)Nc4ccccc43)C2=O)cc1 , what is its reported TGI?
RESULT: > 100 µM

QUERY: Given the compound NCC1(N2CCOCC2)C2CCCC21CNc1ccccc1 (configuration not stated) , what is its reported TGI?
RESULT: > 100 µM

QUERY: Given the compound O=c1c2cc(S(=O)(=O)O)ccc2nc(COc2ccc(Oc3ccc(Cl)cc3Cl)cc2)n1C(=S)Nc1ccc(Cl)cc1 , what is its reported TGI?
RESULT: 31 µM

QUERY: Given the compound CC1CC(c2ccc(Cl)c(Cl)c2)=Nc2ccccc2S1 (configuration not stated) , what is its reported TGI?
RESULT: > 100 µM

QUERY: Given the compound CCCCCCCCCCCC(=O)OC(COC(N)=O)COc1ccc(Cl)cc1 (configuration not stated) , what is its reported TGI?
RESULT: 41.3 µM

QUERY: Given the compound O=C1/C(=C/c2ccccc2[N+](=O)[O-])COc2ccc(O)c(O)c21 , what is its reported TGI?
RESULT: 2.4 µM

QUERY: Given the compound COC(=O)[C@@H]1COC(C(C)(C)C)N1C(=O)C(c1ccccc1)c1ccccc1 (some centres not stated) , what is its reported TGI?
RESULT: > 100 µM

QUERY: Given the compound ClCCCCOC1CCCCO1 (configuration not stated) , what is its reported TGI?
RESULT: > 100 µM

New cases:
QUERY: Given the compound CCOC(=O)CC(NCc1ccc(N=Cc2nc3ccc(C(F)(F)F)cc3nc2-c2ccccc2)cc1)C(=O)OCC (configuration not stated) , what is its reported TGI?
RESULT: 68.3 µM

QUERY: Given the compound CC(C)(C)OC(=O)NC(CS(=O)(=O)O)C(=O)O (configuration not stated) , what is its reported TGI?
RESULT: > 100 µM

QUERY: Given the compound CCN(CCO)CCCOc1ccc2c(Nc3cc(CC(=O)Nc4cccc(F)c4)[nH]n3)ncnc2c1 , what is its reported TGI?
RESULT: > 59.3 µM

The reported numbers originate from PubChem BioAssay (NCI).
